Assay: chemical genetic growth profiling, strain panel (AID 1159580);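 also: tested at 20 µM; growth read once vehicle control cultures reached saturation at 30 °C; 1 = growth at the plate median or of vehicle wells; lower values mean less growth of the strain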
Settings: S. cerevisiae deletion strains, growth OD, locus YNL197C, strain WHI3, stronger effect = lower value
Among all 5,500 compounds or so, about 2,000 (36%) were called active. Not shown: some 18% with an inconclusive outcome. The list shows a part of the results.
Consider the following compounds; for each one, report its normalized growth.
Numbers only.

>  <ENTRY_SMILES>
O=c1[nH]c2cc(Cl)ccc2c(O)c1-c1ccc(Oc2ccccc2)cc1

>  <normalized growth>
1.01

$$$$
>  <ENTRY_SMILES>
CN(C)C(=O)Oc1cccc([N+](C)(C)C)c1

>  <normalized growth>
1.02

$$$$

Turning now to a further compound:
Return reported normalized growth; argument: `CC[C@@H](C)[C@H]1O[C@]2(CC[C@@H]1C)C[C@@H]1C[C@@H](C/C=C(\C)[C@@H](O[C@H]3C[C@H](OC)[C@@H](O[C@H]4C[C@H](OC)[C@@H](O)[C@H](C)O4)[C@H](C)O3)[C@@H](C)/C=C/C=C3\CO[C@@H]4[C@H](O)C(C)=C[C@@H](C(=O)O1)[C@]34O)O2`
1.02

---

Assay: chemical genetic growth profiling, strain panel (AID 1159580);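 also: tested at 20 µM; growth read once vehicle control cultures reached saturation at 30 °C; 1 = growth at the plate median or of vehicle wells; lower values mean less growth of the strain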
Settings: S. cerevisiae deletion strains, growth OD, locus YDL035C, strain GPR1, stronger effect = lower value
Out of some 5,500 compounds screened, about 2,000 (36%) were called active. Not shown: some 18% with an inconclusive outcome. Some of the results follow.
Consider the following compounds; for each one, report its normalized growth.
One number for each entry.

>  <COMPOUND>
C[n+]1ccccc1/C=N/O

>  <normalized growth>
1.01

$$$$
>  <COMPOUND>
CC(C)=CCc1c2c(c3occ(-c4ccc(O)cc4)c(=O)c3c1O)C=CC(C)(C)O2

>  <normalized growth>
0.72

$$$$
>  <COMPOUND>
CC(=O)OC1CCC2(C)C(CC(OC(C)=O)C3(C)C4=CC(=O)OC(c5ccoc5)C4(C)CCC23)C1(C)C (configuration not stated)

>  <normalized growth>
0.972

$$$$
>  <COMPOUND>
CC(=O)O[C@H]1CC[C@@]2(C)C(C[C@@H](OC(C)=O)[C@@]3(C)C4=CC(=O)O[C@@H](c5ccoc5)[C@]4(C)CCC23)C1(C)C (some centres not stated)

>  <normalized growth>
1.02

$$$$
>  <COMPOUND>
CC12CCC(O)CC1CCC1C2[C@H](O)CC2(C)C(C3=CC(=O)OC3)CCC12O (some centres not stated)

>  <normalized growth>
1.07

$$$$
>  <COMPOUND>
CNCCCC12CCC(c3ccccc31)c1ccccc12

>  <normalized growth>
0.998

$$$$

For each of the items listed, what is its normalized growth?
1. COc1ccc(C2Sc3ccccc3N(CCN(C)C)C(=O)C2OC(C)=O)cc1 (configuration not stated)
2. CC(C)=CCc1c2c(c3occ(-c4ccc(O)c(O)c4)c(=O)c3c1O)C=CC(C)(C)O2
3. CN(C)[C@@H]1C(=O)C(C(N)=O)=C(O)[C@@]2(O)C(=O)C3=C(O)c4c(O)ccc(Cl)c4[C@@](C)(O)[C@H]3C[C@@H]12
4. CN(C)CCCN1c2ccccc2CCc2ccc(Cl)cc21
5. OC[C@H]1O[C@@H](O[C@@H]2[C@@H](CO)O[C@](O)(CO)[C@H]2O)[C@H](O)[C@@H](O)[C@H]1O
6. O=C(O)c1cc(O)c2c(c1)[C@@H]([C@H]1c3cc(C(=O)O)cc(O)c3C(=O)c3c(O[C@H]4O[C@H](CO)[C@@H](O)[C@H](O)[C@H]4O)cccc31)c1cccc(O[C@H]3O[C@H](CO)[C@@H](O)[C@H](O)[C@H]3O)c1C2=O

1: 1.02; 2: 0.238; 3: 0.976; 4: 0.824; 5: 1.01; 6: 1.02

For each of the items listed, what is its normalized growth?
1. CN(C)CCCN1c2ccccc2Sc2ccccc21
2. OC[C@H]1O[C@@H](O[C@H]2[C@H](O)[C@@H](O)[C@@H](O)O[C@@H]2CO)[C@H](O)[C@@H](O)[C@@H]1O
3. OC[C@H]1O[C@@](CO)(O[C@@H]2O[C@H](CO)[C@@H](O)[C@H](O)[C@H]2O)[C@@H](O[C@@H]2O[C@H](CO)[C@@H](O)[C@H](O)[C@H]2O)[C@@H]1O
4. Oc1cccc(O)c1

1. 1.02
2. 1.04
3. 1.04
4. 1.01

Return reported normalized growth; argument: Cc1c(C)c2c(c(C)c1O)CCC(C)(CCCC(C)CCCC(C)CCCC(C)C)O2 (configuration not stated)
1.02
